system: Brain; experiment: Drug concentration in Sprague-Dawley rat brain assessed as (S)-6-(5-chloropyrimidin-2-yl)-3-(4-(3-(ethylsulfonyl)-2-hydroxypropoxy)-3-methoxyphenyl)pyrrolo[1,2-f][1,2,4]triazin-4(3H)-one level at 10 mg/kg, po qd at 8 hrs; assay type: ADME, organism-based; details: in vivo, read-out: Drug uptake
EXPERIMENTAL ENDPOINT: concentration (nM)
// return numeric value only (unit: nM, not printed)

## Input Which value of concentration has been reported for `CCS(=O)(=O)C[C@H](COc1ccc(-n2cnn3cc(-c4ncc(Cl)cn4)cc3c2=O)cc1OC)OC(=O)CN` in the records?
## Output 125

Where do the numbers come from? From ChEMBL document CHEMBL3616440.
